system: human hepatocellular carcinoma cell line HepG-2; experiment: MTT assay, inhibition of tumor cell growth (HepG2); format: cell-based; conditions: 72 hours incubation, read-out: IC50 on the tumor cells HepG2
Provide the recorded IC50 for the entries that follow.
Give your result in µM as a bare value.

What IC50 value was documented for this molecule, "CC(C)N1C(=O)C(=C2Oc3ccccc3C2=O)c2cnccc21" ? 1.8

What IC50 value was documented for this molecule, CON=C1C(=C2C(=O)N(C3OC(CO)C(O)C(O)C3O)c3ccc(Cl)cc32)Oc2ccccc21 (stereo not drawn) ? 16

What IC50 value was documented for this molecule, "CON=C1C(=C2C(=O)N(C(C)C)c3cc(Cl)ccc32)Oc2ccccc21" ? 1.8

What IC50 value was documented for this molecule, "CCN1C(=O)C(=C2Oc3ccccc3C2=NO)c2cc(Cl)ccc21" ? 7.7

What IC50 value was documented for this molecule, "CCN1C(=O)C(=C2Oc3ccccc3C2=NO)c2ccccc21" ? 19

What IC50 value was documented for this molecule, "CCN1C(=O)C(=C2C(=O)Oc3ccccc32)c2cc(F)cnc21" ? 35.2

What IC50 value was documented for this molecule, "CCN1C(=O)C(=C2Oc3ccccc3C2=NO)c2cc(C)ccc21" ? 2.8

What IC50 value was documented for this molecule, "CC(C)N1C(=O)C(=C2Oc3ccc(Cl)cc3C2=O)c2ccc(Cl)cc21" ? 12.1

What IC50 value was documented for this molecule, "O=C1Oc2ccccc2C1=C1C(=O)N(Cc2ccccc2)c2cc(Cl)ccc21" ? 43

###

system: human lung adenocarcinoma epithelial cell line A549; assay: MTT assay, inhibition of tumor cell growth (A549); format: cell-based; conditions: 72 hours incubation, read-out: IC50 on the tumor cells A549
Threshold check on IC50: strictly below 8 µM is condition met; on or above 8 µM is condition not met.

Strictly below 8 µM: is that where IC50 of CCN1C(=O)C(=C2Oc3ccc(Cl)cc3C2=NO)c2cccc(F)c21 [Compound 44] sits? condition not met

Strictly below 8 µM: is that where IC50 of CC(C)N1C(=O)C(=C2C(=O)Oc3ccccc32)c2ccccc21 [Compound 106] sits? condition not met

Strictly below 8 µM: is that where IC50 of CC(C)N1C(=O)C(=C2Oc3ccc(Cl)cc3C2=NO)c2ccc(Cl)cc21 [Compound 48] sits? condition met

Strictly below 8 µM: is that where IC50 of O=C1Nc2c(F)cccc2C1=C1Oc2ccccc2C1=O [Compound 2] sits? condition not met

Strictly below 8 µM: is that where IC50 of CON=C1C(=C2C(=O)Nc3ccccc32)Oc2ccccc21 [Compound 49] sits? condition not met

Strictly below 8 µM: is that where IC50 of CC(C)N1C(=O)C(=C2Oc3ccccc3C2=NO)c2ccc(Cl)cc21 [Compound 36] sits? condition not met

Strictly below 8 µM: is that where IC50 of CCN1C(=O)C(=C2C(=O)Oc3ccccc32)c2cnccc21 [Compound 127, N-ethyl-1′-oxo-5-azaisoindigo] sits? condition met

Strictly below 8 µM: is that where IC50 of O=C1Nc2ccc(F)cc2C1=C1C(=O)Oc2ccccc21 [Compound 92] sits? condition not met

###

System: human hepatocellular carcinoma cell line HepG-2
Test: MTT assay, inhibition of tumor cell growth (HepG2)
Type: cell-based
Settings: 72 hours incubation, read-out: IC50 on the tumor cells HepG2
Method: human hepatocellular carcinoma cell line HepG-2, human lung adenocarcinoma epithelial cell line A549 Tumor cells were seeded in RPM11640 medium containing 10% calf serum, incubated at 37° C., 5% CO2 in CO2 incubator, and passaged every 2-3 days. […] The cells in logarithmic growth phase were selected, centrifuged, counted, and formulated into a cell suspension (2.5×10^4/ml) with RPMI1640 medium containing 10% calf serum. […] After incubating for 72 hours, the viability of cells was measured by MTT assay. […]
assay-metric: IC50

What IC50 value was documented for this compound, Cc1cccc2c1OC(=O)C2=C1C(=O)N(C)c2ncccc21 [Compound 140] ? 7.3 µM

What IC50 value was documented for this compound, CC(C)N1C(=O)C(=C2Oc3ccccc3C2=O)c2cc(F)ccc21 [Compound 9] ? 25 µM

What IC50 value was documented for this compound, CON=C1C(=C2C(=O)N(Cc3ccccc3)c3ccc(F)cc32)Oc2ccccc21 [Compound 57] ? 3.1 µM

What IC50 value was documented for this compound, CCN1C(=O)C(=C2Oc3ccc(Cl)cc3C2=O)c2ccc(Cl)cc21 [Compound 22] ? 7.1 µM

What IC50 value was documented for this compound, CCN1C(=O)C(=C2Oc3ccccc3C2=O)c2ccc(Cl)cc21 [Compound 6] ? 60 µM

What IC50 value was documented for this compound, CCCCN1C(=O)C(=C2Oc3ccccc3C2=O)c2cncc(F)c21 [Compound 70] ? 3.6 µM

###

Provide the recorded IC50 for the entries that follow.
tested on: human lung adenocarcinoma epithelial cell line A549; assay: MTT assay, inhibition of tumor cell growth (A549); format: cell-based; conditions: 72 hours incubation, read-out: IC50 on the tumor cells A549
Give your result in µM as a bare value.

What IC50 value was documented for this compound, "CCN1C(=O)C(=C2Oc3ccccc3C2=NO)c2cc(F)ccc21" ? 15

What IC50 value was documented for this compound, "CCN1C(=O)C(=C2Oc3ccc(Cl)cc3C2=NO)c2cc(Cl)ccc21" ? 4.8

What IC50 value was documented for this compound, "CON=C1C(=C2C(=O)N(Cc3ccccc3)c3ccncc32)Oc2ccccc21" ? 9.4

What IC50 value was documented for this compound, "CC(C)N1C(=O)C(=C2Oc3ccccc3C2=NO)c2cc(Cl)cnc21" ? 87

What IC50 value was documented for this compound, "CCCCN1C(=O)C(=C2Oc3ccccc3C2=O)c2cncc(F)c21" ? 4.5

What IC50 value was documented for this compound, "CCN1C(=O)C(=C2Oc3ccc(Cl)cc3C2=NO)c2ccc(Cl)cc21" ? 3.4

What IC50 value was documented for this compound, "CCN1C(=O)C(=C2Oc3ccccc3C2=O)c2c1ccnc2C" ? 18.5

What IC50 value was documented for this compound, "CC(C)N1C(=O)C(=C2Oc3ccccc3C2=NO)c2cccc(F)c21" ? 14.1

What IC50 value was documented for this compound, "O=C1Nc2ccccc2C1=C1Oc2ccccc2C1=NO" ? 3.7

What IC50 value was documented for this compound, "O=C1C(=C2Oc3ccccc3C2=NO)c2cc(Cl)ccc2N1Cc1ccccc1" ? 14

What IC50 value was documented for this compound, "O=C1Nc2c(F)cccc2C1=C1Oc2ccccc2C1=NO" ? 5.4

What IC50 value was documented for this compound, "CCN1C(=O)C(=C2Oc3ccc(Cl)cc3C2=NO)c2ccccc21" ? 14

What IC50 value was documented for this compound, "CN1C(=O)C(=C2Oc3ccccc3C2=O)c2cnccc21" ? 9.5

What IC50 value was documented for this compound, "CC(C)N1C(=O)C(=C2Oc3ccccc3C2=O)c2ccc(Cl)cc21" ? 14

What IC50 value was documented for this compound, "O=C1Nc2nc(Cl)ccc2C1=C1C(=O)Oc2ccccc21" ? 12.1

What IC50 value was documented for this compound, "CC(C)N1C(=O)C(=C2Oc3ccccc3C2=O)c2cnccc21" ? 7.4

What IC50 value was documented for this compound, "Cc1ccc2c(c1)C(=C1Oc3ccccc3C1=O)C(=O)N2Cc1ccccc1" ? 8

What IC50 value was documented for this compound, "O=C1Oc2ccccc2C1=C1C(=O)N(Cc2ccccc2)c2ccncc21" ? 11.5

What IC50 value was documented for this compound, "CCN1C(=O)C(=C2C(=O)Oc3ccccc32)c2ccccc21" ? 7

###

system: human hepatocellular carcinoma cell line HepG-2; test: MTT assay, inhibition of tumor cell growth (HepG2); assay type: cell-based; settings: 72 hours incubation, read-out: IC50 on the tumor cells HepG2
Provide the recorded IC50 for the entries that follow.
Please format your answer as a value with the unit trailing.

What IC50 value was documented for this compound, "CCN1C(=O)C(=C2Oc3ccccc3C2=O)c2ccccc21" ? 26.4 µM

What IC50 value was documented for this compound, "CCN1C(=O)C(=C2Oc3ccc(Cl)cc3C2=NO)c2ccc(Cl)cc21" ? 3.8 µM

What IC50 value was documented for this compound, "O=C1C(=C2C(=O)N(Cc3ccccc3)c3ccc(F)cc32)Oc2ccccc21" ? 34 µM

What IC50 value was documented for this compound, CC(C)N1C(=O)C(=C2Oc3ccccc3C2=NO)c2cc(Cl)ccc21 [Compound 35] ? 29.2 µM

What IC50 value was documented for this compound, "CON=C1C(=C2C(=O)Nc3ccccc32)Oc2ccccc21" ? 4.8 µM

###

test system: human lung adenocarcinoma epithelial cell line A549; assay: MTT assay, inhibition of tumor cell growth (A549); type: cell-based; details: 72 hours incubation, read-out: IC50 on the tumor cells A549
Provide the recorded pIC50 for the entries that follow.
Note on pIC50: it is the negative log10 of concentration, concentration in mol/L.

What pIC50 value was documented for this compound, "CON=C1C(=C2C(=O)N(Cc3ccccc3)c3ccc(Cl)cc32)Oc2ccccc21" ? 4.92

What pIC50 value was documented for this compound, "O=C1Nc2ccccc2C1=C1Oc2ccccc2C1=O" ? 4.40

What pIC50 value was documented for this compound, "CON=C1C(=C2C(=O)N(Cc3ccccc3)c3ncccc32)Oc2ccccc21" ? 4.54

What pIC50 value was documented for this compound, "CCN1C(=O)C(=C2C(=O)Oc3ccccc32)c2cc(F)cnc21" ? 4.58

What pIC50 value was documented for this compound, "CCN1C(=O)C(=C2Oc3ccccc3C2=NOC)c2ccccc21" ? 5.41

What pIC50 value was documented for this compound, "CCN1C(=O)C(=C2Oc3ccccc3C2=NOC)c2cccc(F)c21" ? 5.55

What pIC50 value was documented for this compound, "O=C1C(=C2C(=O)N(Cc3ccccc3)c3ccc(Cl)cc32)Oc2ccccc21" ? 4.80
